- Test system: T24 cells
- test_method_notes: CCK-8 anti-proliferative assay, T24
- Format: cell-based, human
- condition_description: Homo sapiens, T-24; Table 6; co-incubated 48 h; read-out: Anti-proliferative activity (IC50 ± standard deviation) T24
- Protocol: The obtained quinazolinyl-aryl urea derivatives were screened for compounds with optimal activity using the following method. […] Experimental Procedure for Anti-Proliferative Activity Evaluation: The CCK-8 assay was employed. […] The reaction was terminated, and OD (optical density) values at 450 nm were measured using a microplate reader. Inhibition rates were calculated as: (ODcontrol−ODtreatment)/ODcontrol×100%. […]
reported_metric: IC50

[[record]]
compound = "CCc1ccccc1NC(=O)Nc1cccc(CNc2ncnc3cc(OC)c(OCCCCCCN4CCN(CCN5CCOCC5)CC4)cc23)c1 [Compound 8-1g]"
result = "24.8 µM"

[[record]]
compound = "COc1cc2ncnc(NCc3cccc(NC(=O)Nc4ccc(F)c(C(F)(F)F)c4)c3)c2cc1OCCCCCCN1CCN(CCN2CCOCC2)CC1 [Compound 8-1q]"
result = "6.83 µM"

[[record]]
compound = "COc1cc2ncnc(NCc3cccc(NC(=O)Nc4cc(C(F)(F)F)cc(C(F)(F)F)c4)c3)c2cc1OCCCCCCN1CCN(CCN2CCOCC2)CC1 [Compound 8-1s]"
result = "6.95 µM"

[[record]]
compound = "COc1cc2ncnc(NCc3cccc(NC(=O)Nc4ccc(Cl)c(C(F)(F)F)c4)c3)c2cc1OCCCCCCN1CCN(CCN2CCOCC2)CC1 [Compound 8-1r]"
result = "3.91 µM"

[[record]]
compound = "COc1cc2ncnc(NCc3cccc(NC(=O)Nc4ccc(C(C)(C)C)cc4)c3)c2cc1OCCCCCCN1CCN(CCN2CCOCC2)CC1 [Compound 8-1j]"
result = "4.57 µM"

[[record]]
compound = "COc1cc2ncnc(NCc3cccc(NC(=O)Nc4cccc(C)c4)c3)c2cc1OCCCCCCN1CCN(CCN2CCOCC2)CC1 [Compound 8-1c]"
result = "11.5 µM"

[[record]]
compound = "COc1cc2ncnc(NCc3cccc(NC(=O)Nc4ccc(C(C)C)cc4)c3)c2cc1OCCCCCCN1CCN(CCN2CCOCC2)CC1 [Compound 8-1i]"
result = "16.3 µM"

[[record]]
compound = "COc1cc2ncnc(NCc3cccc(NC(=O)Nc4ccc(C)cc4)c3)c2cc1OCCCCCCN1CCN(CCN2CCOCC2)CC1 [Compound 8-1d]"
result = "6.59 µM"

[[record]]
compound = "COc1cc2ncnc(NCc3cccc(NC(=O)NC4CCCCC4)c3)c2cc1OCCCCCCN1CCN(CCN2CCOCC2)CC1 [Compound 8-1v]"
result = "15.8 µM"

[[record]]
compound = "COc1cc2ncnc(NCc3cccc(NC(=O)Nc4ccc(Cl)c(Cl)c4)c3)c2cc1OCCCCCCN1CCN(CCN2CCOCC2)CC1 [Compound 8-1o]"
result = "7.31 µM"


* * *

Each entry below carries its recorded IC50.
- Test system: BxPC-3 cells
- test_method_notes: CCK-8 anti-proliferative assay, BxPC-3
- Assay type: cell-based, human
- condition_description: Homo sapiens, BXPC-3; Table 7; co-incubated 48 h; read-out: Anti-proliferative activity (IC50 ± standard deviation) BxPC-3
Where a name gives a salt, the structure may show the parent alone.
reported_metric: IC50 (µM)

[[record]]
compound = "COc1cc2ncnc(NCc3cccc(NC(=O)Nc4ccc(F)c(C(F)(F)F)c4)c3)c2cc1OCCCCCCN1CCN(CCN2CCOCC2)CC1"
readout_unit = "µM"
numeric_result = 7.78

[[record]]
compound = "COc1cc2ncnc(NCc3cccc(NC(=O)Nc4ccc(C)cc4)c3)c2cc1OCCCCCCN1CCN(CCN2CCOCC2)CC1"
readout_unit = "µM"
numeric_result = 13.7

[[record]]
compound = "COc1cc2ncnc(NCc3cccc(NC(=O)NC4CCCCC4)c3)c2cc1OCCCCCCN1CCN(CCN2CCOCC2)CC1"
readout_unit = "µM"
numeric_result = 16.8

[[record]]
compound = "CNC(=O)c1cc(Oc2ccc(NC(=O)Nc3ccc(Cl)c(C(F)(F)F)c3)cc2)ccn1 [Sora, sorafenib, reference compound]"
readout_unit = "µM"
numeric_result = 13.4

[[record]]
compound = "CCc1ccccc1NC(=O)Nc1cccc(CNc2ncnc3cc(OC)c(OCCCCCCN4CCN(CCN5CCOCC5)CC4)cc23)c1"
readout_unit = "µM"
numeric_result = 10.8

[[record]]
compound = "CCc1cccc(CC)c1NC(=O)Nc1cccc(CNc2ncnc3cc(OC)c(OCCCCCCN4CCN(CCN5CCOCC5)CC4)cc23)c1"
readout_unit = "µM"
numeric_result = 7.61

[[record]]
compound = "C#Cc1cccc(Nc2ncnc3cc(OCCOC)c(OCCOC)cc23)c1 [Erlo, erlotinib hydrochloride, reference compound]"
readout_unit = "µM"
numeric_result = 18.3

[[record]]
compound = "COc1cc2ncnc(NCc3cccc(NC(=O)Nc4ccccc4Cl)c3)c2cc1OCCCCCCN1CCN(CCN2CCOCC2)CC1"
readout_unit = "µM"
numeric_result = 7.79

[[record]]
compound = "COc1cc2ncnc(NCc3cccc(NC(=O)Nc4cc(C(F)(F)F)cc(C(F)(F)F)c4)c3)c2cc1OCCCCCCN1CCN(CCN2CCOCC2)CC1"
readout_unit = "µM"
numeric_result = 7.31

[[record]]
compound = "COc1cc2ncnc(NCc3cccc(NC(=O)Nc4ccc(Cl)c(C(F)(F)F)c4)c3)c2cc1OCCCCCCN1CCN(CCN2CCOCC2)CC1"
readout_unit = "µM"
numeric_result = 7.39

[[record]]
compound = "COc1cc2ncnc(NCc3cccc(NC(=O)Nc4cccc(C)c4)c3)c2cc1OCCCCCCN1CCN(CCN2CCOCC2)CC1"
readout_unit = "µM"
numeric_result = 16.5

[[record]]
compound = "COc1cc2ncnc(NCc3cccc(NC(=O)Nc4ccc(Cl)c(Cl)c4)c3)c2cc1OCCCCCCN1CCN(CCN2CCOCC2)CC1"
readout_unit = "µM"
numeric_result = 7.73

[[record]]
compound = "COc1cc2ncnc(NCc3cccc(NC(=O)Nc4ccc(C(C)C)cc4)c3)c2cc1OCCCCCCN1CCN(CCN2CCOCC2)CC1"
readout_unit = "µM"
numeric_result = 13.3

[[record]]
compound = "COc1cc2ncnc(NCc3cccc(NC(=O)Nc4ccc(C(C)(C)C)cc4)c3)c2cc1OCCCCCCN1CCN(CCN2CCOCC2)CC1"
readout_unit = "µM"
numeric_result = 6.53

[[record]]
compound = "COc1cc2ncnc(NCc3cccc(NC(=O)Nc4ccc(F)cc4)c3)c2cc1OCCCCCCN1CCN(CCN2CCOCC2)CC1"
readout_unit = "µM"
numeric_result = 13


* * *

- Tested on: 143B cells
- test_method_notes: CCK-8 anti-proliferative assay, 143B
- Assay type: cell-based, human
- condition_description: Homo sapiens, 143B; Table 11; co-incubated 48 h; read-out: Anti-proliferative activity (IC50 ± standard deviation) 143B
pIC50: −log10 of the molar value.
reported_metric: pIC50

[[record]]
compound = "COc1cc2ncnc(NCc3cccc(NC(=O)Nc4ccc(C(F)(F)F)cc4)c3)c2cc1OCCCCCCN1CCC(CN2CCN(c3ccccn3)CC2)CC1 [Compound 8-2t]"
numeric_result = 5.03

[[record]]
compound = "CCc1ccccc1NC(=O)Nc1cccc(CNc2ncnc3cc(OC)c(OCCCCCCN4CCC(CN5CCN(c6ccccn6)CC5)CC4)cc23)c1 [Compound 8-2g]"
numeric_result = 5.27

[[record]]
compound = "COc1cc2ncnc(NCc3cccc(NC(=O)Nc4ccc(C)cc4)c3)c2cc1OCCCCCCN1CCC(CN2CCN(c3ccccn3)CC2)CC1 [Compound 8-2d]"
numeric_result = 5.16

[[record]]
compound = "COc1cc2ncnc(NCc3cccc(NC(=O)Nc4ccccc4Cl)c3)c2cc1OCCCCCCN1CCC(CN2CCN(c3ccccn3)CC2)CC1 [Compound 8-2o]"
numeric_result = 4.86

[[record]]
compound = "COc1cc2ncnc(NCc3cccc(NC(=O)NC4CCCCC4)c3)c2cc1OCCCCCCN1CCC(CN2CCN(c3ccccn3)CC2)CC1 [Compound 8-2z]"
numeric_result = 5.32

[[record]]
compound = "COc1cc2ncnc(NCc3cccc(NC(=O)NCc4ccccc4)c3)c2cc1OCCCCCCN1CCC(CN2CCN(c3ccccn3)CC2)CC1 [Compound 8-2y]"
numeric_result = 5.17


* * *

- Tested on: PANC-1 cells
- test_method_notes: CCK-8 anti-proliferative assay, PANC-1
- Assay type: cell-based, human
- condition_description: Homo sapiens, PANC-1; Table 11; co-incubated 48 h; read-out: Anti-proliferative activity (IC50 ± standard deviation) PANC-1
# IC50 annotations
reported_metric: IC50 (µM)

[[record]]
smiles_code = "COc1cc2ncnc(NCc3cccc(NC(=O)Nc4cccc(C)c4)c3)c2cc1OCCCCCCN1CCC(CN2CCN(c3ccccn3)CC2)CC1"
readout_unit = "µM"
inequality_operator = "="
numeric_result = 19.2

[[record]]
smiles_code = "COc1cc2ncnc(NCc3cccc(NC(=O)Nc4ccc(F)c(C(F)(F)F)c4)c3)c2cc1OCCCCCCN1CCC(CN2CCN(c3ccccn3)CC2)CC1"
readout_unit = "µM"
inequality_operator = ">"
numeric_result = 30

[[record]]
smiles_code = "COc1cc2ncnc(NCc3cccc(NC(=O)Nc4cc(C)cc(C)c4)c3)c2cc1OCCCCCCN1CCC(CN2CCN(c3ccccn3)CC2)CC1"
readout_unit = "µM"
inequality_operator = "="
numeric_result = 12.8

[[record]]
smiles_code = "COc1ccccc1NC(=O)Nc1cccc(CNc2ncnc3cc(OC)c(OCCCCCCN4CCC(CN5CCN(c6ccccn6)CC5)CC4)cc23)c1"
readout_unit = "µM"
inequality_operator = "="
numeric_result = 15.9

[[record]]
smiles_code = "COc1ccc(NC(=O)Nc2cccc(CNc3ncnc4cc(OC)c(OCCCCCCN5CCC(CN6CCN(c7ccccn7)CC6)CC5)cc34)c2)cc1"
readout_unit = "µM"
inequality_operator = ">"
numeric_result = 30

[[record]]
smiles_code = "COc1cc2ncnc(NCc3cccc(NC(=O)Nc4ccc(Cl)c(C(F)(F)F)c4)c3)c2cc1OCCCCCCN1CCC(CN2CCN(c3ccccn3)CC2)CC1"
readout_unit = "µM"
inequality_operator = "="
numeric_result = 14.9

[[record]]
smiles_code = "COc1cc2ncnc(NCc3cccc(NC(=O)Nc4ccc(C(C)C)cc4)c3)c2cc1OCCCCCCN1CCC(CN2CCN(c3ccccn3)CC2)CC1"
readout_unit = "µM"
inequality_operator = "="
numeric_result = 9.42

[[record]]
smiles_code = "COc1cc2ncnc(NCc3cccc(NC(=O)Nc4ccc(C(C)(C)C)cc4)c3)c2cc1OCCCCCCN1CCC(CN2CCN(c3ccccn3)CC2)CC1"
readout_unit = "µM"
inequality_operator = "="
numeric_result = 5.46

[[record]]
smiles_code = "COc1cc2ncnc(NCc3cccc(NC(=O)Nc4ccccc4Cl)c3)c2cc1OCCCCCCN1CCC(CN2CCN(c3ccccn3)CC2)CC1"
readout_unit = "µM"
inequality_operator = ">"
numeric_result = 30

[[record]]
smiles_code = "COc1cc2ncnc(NCc3cccc(NC(=O)Nc4ccc(F)cc4)c3)c2cc1OCCCCCCN1CCC(CN2CCN(c3ccccn3)CC2)CC1"
readout_unit = "µM"
inequality_operator = "="
numeric_result = 18.8

[[record]]
smiles_code = "CCc1ccccc1NC(=O)Nc1cccc(CNc2ncnc3cc(OC)c(OCCCCCCN4CCC(CN5CCN(c6ccccn6)CC5)CC4)cc23)c1"
readout_unit = "µM"
inequality_operator = "="
numeric_result = 8.79

[[record]]
smiles_code = "COc1cc2ncnc(NCc3cccc(NC(=O)Nc4ccc(C)cc4C)c3)c2cc1OCCCCCCN1CCC(CN2CCN(c3ccccn3)CC2)CC1"
readout_unit = "µM"
inequality_operator = "="
numeric_result = 8.37

[[record]]
smiles_code = "COc1cc2ncnc(NCc3cccc(NC(=O)Nc4ccccc4)c3)c2cc1OCCCCCCN1CCC(CN2CCN(c3ccccn3)CC2)CC1"
readout_unit = "µM"
inequality_operator = ">"
numeric_result = 30

[[record]]
smiles_code = "COc1cc2ncnc(NCc3cccc(NC(=O)Nc4ccc(C(F)(F)F)cc4)c3)c2cc1OCCCCCCN1CCC(CN2CCN(c3ccccn3)CC2)CC1"
readout_unit = "µM"
inequality_operator = "="
numeric_result = 15.6

[[record]]
smiles_code = "COc1cc2ncnc(NCc3cccc(NC(=O)Nc4ccc(C)cc4)c3)c2cc1OCCCCCCN1CCC(CN2CCN(c3ccccn3)CC2)CC1"
readout_unit = "µM"
inequality_operator = "="
numeric_result = 25.4

[[record]]
smiles_code = "COc1cc2ncnc(NCc3cccc(NC(=O)Nc4cc(C(F)(F)F)cc(C(F)(F)F)c4)c3)c2cc1OCCCCCCN1CCC(CN2CCN(c3ccccn3)CC2)CC1"
readout_unit = "µM"
inequality_operator = "="
numeric_result = 15.1

[[record]]
smiles_code = "COc1cc2ncnc(NCc3cccc(NC(=O)Nc4ccc(Cl)cc4)c3)c2cc1OCCCCCCN1CCC(CN2CCN(c3ccccn3)CC2)CC1"
readout_unit = "µM"
inequality_operator = "="
numeric_result = 15.2

[[record]]
smiles_code = "COc1cc2ncnc(NCc3cccc(NC(=O)Nc4c(Cl)cc(Cl)cc4Cl)c3)c2cc1OCCCCCCN1CCC(CN2CCN(c3ccccn3)CC2)CC1"
readout_unit = "µM"
inequality_operator = "="
numeric_result = 10.4

[[record]]
smiles_code = "COc1cc2ncnc(NCc3cccc(NC(=O)NCc4ccccc4)c3)c2cc1OCCCCCCN1CCC(CN2CCN(c3ccccn3)CC2)CC1"
readout_unit = "µM"
inequality_operator = "="
numeric_result = 7.36

[[record]]
smiles_code = "COc1cc2ncnc(NCc3cccc(NC(=O)Nc4ccccc4C)c3)c2cc1OCCCCCCN1CCC(CN2CCN(c3ccccn3)CC2)CC1"
readout_unit = "µM"
inequality_operator = "="
numeric_result = 14.5

